# kon per record follows
# TEST SYSTEM: T1, GST-human NOGO-A56 (human, UniProt Q9NQC3 586-785)
# T1 construct: also called hNOGO; recombinant human NOGO; not shown: Glutathione S-transferase (GST) tag encoded by vector pGEX-6P1, N-terminal to the NOGO-A fragment; the tag and linker se
# T1 sequence: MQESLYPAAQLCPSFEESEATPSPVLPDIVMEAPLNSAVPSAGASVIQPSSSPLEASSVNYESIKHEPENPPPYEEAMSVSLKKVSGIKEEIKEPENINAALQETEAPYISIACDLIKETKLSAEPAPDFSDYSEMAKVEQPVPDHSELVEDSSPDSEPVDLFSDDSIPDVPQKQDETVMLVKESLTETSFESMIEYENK
# EXPERIMENT: SPR (Biacore 3000), GST-human NOGO-A56 amine-coupled to CM5 chip, antibody as analyte; mean (SD) of four experiments
The answer is to be given in M⁻¹ s⁻¹; state only the numeric part.

Take a look at these entries with their results.
BINDER	kon [M⁻¹ s⁻¹]
H16L18 (antibody, human IgG1, kappa, V domains shown, Humanised 2A10; human gamma-1 mutated constant region, human kappa; also called H16L18 FL) VH: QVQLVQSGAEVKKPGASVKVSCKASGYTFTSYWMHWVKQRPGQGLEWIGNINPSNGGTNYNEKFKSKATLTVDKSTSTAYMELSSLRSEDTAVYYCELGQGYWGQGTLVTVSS VL: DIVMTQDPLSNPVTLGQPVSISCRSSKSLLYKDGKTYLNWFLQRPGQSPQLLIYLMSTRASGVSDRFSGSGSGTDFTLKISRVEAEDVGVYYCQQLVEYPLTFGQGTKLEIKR	4.18e+06
HcLc (chimera of 2A10: murine 2A10 VH and VL with human IgG constant regions) (antibody, V domains shown, also called 2A10 chimeric antibody; the chimera) VH: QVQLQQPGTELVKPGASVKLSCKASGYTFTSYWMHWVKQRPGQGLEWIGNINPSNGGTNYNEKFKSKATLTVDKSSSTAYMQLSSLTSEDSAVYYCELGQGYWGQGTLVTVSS VL: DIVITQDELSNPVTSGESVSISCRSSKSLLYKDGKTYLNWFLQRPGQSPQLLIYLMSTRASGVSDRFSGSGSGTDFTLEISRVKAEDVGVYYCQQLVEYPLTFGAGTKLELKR	2.7e+06
H1L11 (antibody, human IgG1, kappa, V domains shown, human gamma-1 mutated constant region, human kappa) VH: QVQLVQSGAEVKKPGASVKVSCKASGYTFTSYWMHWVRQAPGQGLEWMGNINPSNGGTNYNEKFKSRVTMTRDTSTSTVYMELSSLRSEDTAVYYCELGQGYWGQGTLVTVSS VL: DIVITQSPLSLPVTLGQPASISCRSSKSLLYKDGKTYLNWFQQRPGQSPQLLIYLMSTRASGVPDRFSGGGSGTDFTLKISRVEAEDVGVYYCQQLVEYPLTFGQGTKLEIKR	1.73e+06

Exam item: Using the record for H18L16 (antibody, human IgG1, kappa, V domains shown, Humanised 2A10; human gamma-1 mutated constant region, human kappa; also called H18L16 FL) VH: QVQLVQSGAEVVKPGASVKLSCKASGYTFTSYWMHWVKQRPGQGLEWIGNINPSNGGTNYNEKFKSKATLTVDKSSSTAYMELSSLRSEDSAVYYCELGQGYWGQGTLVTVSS VL: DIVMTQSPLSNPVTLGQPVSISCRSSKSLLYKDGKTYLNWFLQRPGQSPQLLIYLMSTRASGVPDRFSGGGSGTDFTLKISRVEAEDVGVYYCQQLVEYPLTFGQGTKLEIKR , state its measured kon.
Marked response: 3.64e+06

Exam item: Using the record for H6L13 (antibody, human IgG1, kappa, V domains shown, Humanised 2A10; human gamma-1 mutated constant region, human kappa; also called H6L13 FL) VH: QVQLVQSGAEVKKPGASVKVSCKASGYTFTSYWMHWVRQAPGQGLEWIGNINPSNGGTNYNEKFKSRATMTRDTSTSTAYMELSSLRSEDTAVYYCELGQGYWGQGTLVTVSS VL: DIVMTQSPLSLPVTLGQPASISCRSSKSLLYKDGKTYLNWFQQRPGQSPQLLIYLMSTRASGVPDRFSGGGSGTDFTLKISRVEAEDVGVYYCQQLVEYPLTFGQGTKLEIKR , state its measured kon.
Marked response: 1.82e+06
